# Measurement Protocol: Hydrophobicity was determined
# Format: ADME
Readout Label: k'

Smiles Str	k'
COCCCCCCCCCCCC(=O)Nc1cc(C(C)(C)C)cc(C(C)(C)C)c1O	6.39

[A] CCCCCCCCCC(=O)Nc1cc(C(C)(C)C)cc(C(C)(C)C)c1O
[B] CC(C)(C)c1cc(NC(=O)CCCCCCCCC(=O)O)c(O)c(C(C)(C)C)c1
[C] CCCCCCCCCCCC(=O)Nc1cc(C(C)(C)C)cc(C(C)(C)C)c1O
[D] CCCCCCCCCCCCCC(=O)Nc1cc(C(C)(C)C)cc(C(C)(C)C)c1O
Lookup: # rank_down: sort by k', max first List the labels according to the requested ordering.
Found: D, C, A, B

Where these numbers come from: ChEMBL document CHEMBL1136662
